- Test system: T47D
- assay-explanation: cells
- Assay type: cell-based
- assay-context: Homo sapiens, 120 h, read-out: T47D IC50
measure-name: pIC50
One number for each entry, as −log10 of the molar value.

The following compounds have reported results that may help.
[[record]]
compound = "[2H]C([2H])(O)C(=O)NCc1c2c(nc3cc(F)c(C)cc13)-c1cc3c(c(=S)n1C2)COC(=O)[C@]3(O)CC [Compound 29]"
target_of_assay = "T47D"
measure_name = "pIC50"
observed_measurement = 10.85

[[record]]
compound = "CC[C@@]1(O)C(=O)OCc2c1cc1n(c2=S)Cc2c-1nc1cc3c(cc1c2CNC(=O)[C@H]1C[C@@H](O)C1)OCCO3 [Compound 38]"
target_of_assay = "T47D"
measure_name = "pIC50"
observed_measurement = 9.63

[[record]]
compound = "CC[C@@]1(O)C(=O)OCc2c1cc1n(c2=S)Cc2c-1nc1cc(F)c(F)cc1c2CN [Compound 15]"
target_of_assay = "T47D"
measure_name = "pIC50"
observed_measurement = 9.80

[[record]]
compound = "CC[C@@]1(O)C(=O)OCc2c1cc1n(c2=S)Cc2c-1nc1cc(F)c(OC)cc1c2CNC(=O)[C@@H](C)O [Compound 34]"
target_of_assay = "T47D"
measure_name = "pIC50"
observed_measurement = 9.82

[[record]]
compound = "CC[C@@]1(O)C(=O)OCc2c1cc1n(c2=S)Cc2c-1nc1cc(F)c(F)cc1c2CNC(=O)[C@H]1C[C@@H](O)C1 [Example 44]"
target_of_assay = "T47D"
measure_name = "pIC50"
observed_measurement = 9.71

[[record]]
compound = "CC[C@@]1(O)C(=O)OCc2c1cc1n(c2=S)Cc2c-1nc1cc3c(cc1c2CNC(=O)[C@H](C)O)OCCO3 [Compound 40]"
target_of_assay = "T47D"
measure_name = "pIC50"
observed_measurement = 10.28


Now consider the entry below.
Ask: Form: Entry = CC[C@@]1(O)C(=O)OCc2c1cc1n(c2=S)Cc2c-1nc1cc(F)c(C)cc1c2CNC(=O)[C@H](O)C1CC1 [Compound 20] | System = T47D | pIC50 = ____
Result: 9.61

###

- Tested on: A375
- assay-explanation: In vitro proliferation inhibition assay of camptothecin derivatives (Payload), Test Example 1
- Type: cell-based
- assay-context: Homo sapiens, A-375, 96 h; payload, cultured 4 days, CCK-8; ~ indicates estimated IC50 value; read-out: A375 IC50
measure-name: IC50 (nM)
One number for each entry, in nM.

[[record]]
smiles_record = "CC[C@@]1(OC(=O)Cn2cc(F)c(=O)[nH]c2=O)C(=O)OCc2c1cc1n(c2=O)Cc2c-1nc1cc(F)c(C)c3c1c2[C@@H](N)CC3"
observed_measurement = 0.164


Ask: So what does the record say about IC50 for `CC[C@@]1(OC(=O)CCOCCOCCOCCOC)C(=O)OCc2c1cc1n(c2=O)Cc2c-1nc1cc(F)c(C)c3c1c2[C@@H](N)CC3` ?
Result: 0.714

###

- Test system: T47D
- assay-explanation: cells
- Assay type: cell-based
- assay-context: Homo sapiens, 96 h, read-out: T47D IC50
measure-name: pIC50
Numbers only, as −log10 of the molar value.

[[record]]
compound = "CCc1c2c(nc3ccc(O)cc13)-c1cc3c(c(=O)n1C2)COC(=O)[C@]3(O)CC [SN38, SN-38, reference compound]"
measure_name = "pIC50"
observed_measurement = 8.68

[[record]]
compound = "CC[C@@]1(O)C(=O)OCc2c1cc1n(c2=O)Cc2c-1nc1cc(F)c(C)c3c1c2[C@@H](NC(=O)CO)CC3 [DXD, Dxd, reference compound]"
measure_name = "pIC50"
observed_measurement = 8.99

[[record]]
compound = "CC[C@@]1(O)C(=O)OCc2c1cc1n(c2=O)Cc2c-1nc1cc(F)c(C)c3c1c2[C@@H](N)CC3 [EXD, Exatecan, reference compound]"
measure_name = "pIC50"
observed_measurement = 9.14


Now consider the entry below.
Ask: So what does the record say about pIC50 for `CC[C@@]1(O)C(=O)OCc2c1cc1n(c2=S)Cc2c-1nc1cc(F)c(C)cc1c2CNC(=O)CO` ?
Result: 9.76
